Item-by-item account of TGI
Test system: HL-60(TB) leukemia
Assay: NCI tumour cell line growth inhibition, 48 h
quantity-name: TGI

> print(dat)
                                    compound  reported.value
 1     COc1cc2ccc(/C=C\[N+](=O)[O-])cc2cc1OC         5.07 µM
 2  COc1ccc(-c2nc(-c3nc4ccc(OC)cc4[nH]3)c3ccccn23)cc1         7.75 µM
 3  Nc1c(C(=O)c2cccc(-c3ccncc3)c2)cnn1-c1ccc(F)cc1F         > 25 µM
 4      O=c1oc2ccc3ccccc3c2cc1-c1cn2ccccc2n1        > 100 µM
 5  COc1ccc(/C(COc2ccc3c(=O)cc(-c4ccccc4)oc3c2)=N\O)cc1         > 50 µM
 6  C=CCOc1cccc(C2(O)c3ccccc3C3=NCCCN32)c1 (stereo not given)       > 35.6 µM
 7   Cc1cc(=O)[nH]c(-n2[nH]c(C)c(CCO)c2=O)n1        > 100 µM
 8                     O=C([O-])C[n+]1ccccc1        > 100 µM
 9  C=CCNC1=C2C[C@@H](C)C[C@@H](OC)[C@H](OC(=O)CCN)[C@H](C)/C=C(\C)[C@@H](OC(N)=O)[C@H](OC)/C=C\C=C(/C)C(=O)NC(=CC1=O)C2=O         17.9 µM
10   CCOC(=O)P(=O)(O)c1ccc(N(C)Cc2ccccc2)cc1        > 100 µM
